- TEST: soluble on expression in E. coli; label from the status in PepcDB or PDB records
PROPERTY: soluble on expression in E. coli

>  <RESIDUES>
MGSDKIHHHHHHAKDKDAYRQYGINCIENGSYDDAVDAFQKALDQSVGSVGAEELDICYYKAKAQYLSGDVDGAIDTYTAIIDYNKDSDAYYLRGCIYFAKNDSDKGLKDFKTALSENNDNYELYLGVYETLSKYGMNDQGKEYLDNALKLKAKTADDYMQRGRIYTMLGDYDSAIKSLQKAIDEKLVKANYYMGEVYQKKGDNDSSQKYFKKYLDSGEADSYELMNMGQAQMDNGNYDTAITYFQNALELESVPNKQQITKAMIIAYEYSGDFATAKSKMEEYMKDYPDDEDAAREYQFLETR

>  <RESULT>
not soluble

$$$$
>  <RESIDUES>
MGSDKIHHHHHHMSQDDLLSQEEIDALLKGVSGDEDNAQDERASREGKVRPFDPAKQHRIIRERLHALDIINERFARQFRVALFNLMRRSADITVESVRYQSYSEFSRNLPVPTNLNLITMKPLRGSALVVFPPSLVFMVVDNLFGGDGRFLTKSEGREFTRTEQRIIHRMLKMALEGYSESWKSVYPLDIEYTRSELQVKFANITNSPNEIVVNSTFHVEVGNLSSEFNICIPYSMIEPIRDILASPLHDTHPDEEQQWEARMAHEIRHSSVELTADFVDIPLRLRDVTQLSVGDIIPIELPEAVNVSVDGIPVMTCDYGSQKSQRALRVRHLIEHGSSQVAAKDPKDD

>  <RESULT>
not soluble

$$$$
>  <RESIDUES>
MAHHHHHHMTGADPDMLGSSAPNRPALMEPSVAPSPTSSPPATNAHANGSNSNGAGNVPLSQSTWRDSAAGSQPHGHGMPSTVRAADAPGVTEEKQAEGAFGADVHYNPATEHDFAVRGGLDGGAEGEHNSAKKIRLNNVSHFKNVPSRLNVQRQSTEADLVPCTYCGRKFLPGRVQKHEDCCIDRSKPLTARKGGALPARPSTGAATPRLAKPTPAAPAVESAATGKAKFCGGCGCKKSEPDQKFCTECGHKL

>  <RESULT>
soluble

$$$$
>  <RESIDUES>
MHNISAKKFLGYLKNKCLEFGVKVIEGNPAYTSIKCPNCGSRLSQLYKLADERALPSRLMYCFDCGFYADRDTVAVFNLIKRFTGLYPFSPKSNEPIAEGTVFPDEAMGLEHHHHHH

>  <RESULT>
soluble

$$$$
>  <RESIDUES>
AVSGLYSSSDDVIELTPSNFNREVIQSDGLWLVEFYAPWCGHCQRLTPEWKKAATALKDVVKVGAVNADKHQSLGGQYGVQGFPTIKIFGANKNKPEDYQGGRTGEAIVDAALSALR

>  <RESULT>
soluble

$$$$

We now examine a further sequence.
Give the reported value of soluble on expression in E. coli for this record: `MNDDKLRSLFASLATLTQQGPIPVQAYSMLAGQHSTEVLAEHMRLRWLSDGRFGPVAANILMHIHKSDPKDISLSSNVLALLLNDYRNRLSVRNDSRLMFRNCVKTLFSMYPVYVKMDECVSKCFIKPMFSSLDALIDDAPDTEDLETAGILLSENGRVLHDLNSYLVERIIVKLRHKLISEDPIVTKHVRQIFIHVYDLWAFGWSELNIPECLLTLSAEGKLSIVDQTPLRKNDISKQEFGSKESIV`
not soluble

----------
- TEST: soluble on expression in E. coli; label from the status in PepcDB or PDB records

>  <RESIDUES>
MAFALWYSLQERAPVVERSLKVPLQVVGLGEGRRALGLPREVLLRLRGPAPLLEGRALPVSAYLDLSGAEGEVVREVRVAAPQGVEVLEVVPARVGVVVEVEAQRQIPVEVLAQGAWVLTDPAFVEAVGPESQVEAAVSAVGLDLGDEVVLFPFGPEGPLEGVELRPNRVRVVERREALFLKEVPLSLKPPPGRRLLDYAPKTVRLVGPREALEGLAGVAATLQEALGPGEVEVAVAPDLPPGVQTLGPVRVRVALE

>  <soluble on expression in E. coli>
soluble

$$$$
>  <RESIDUES>
MNPIQHILDTYPLIVLDGAMATELERKGCNLNDSLWSAKILMEEPELIKQVHTDYFAAGADCAITASYQSTFEGFAARGLSEAEARRLIELSVSIAAEARDEFWSLEENRLNRPKPIIAASIGPYGAYLADGSEYRGNYAISEDELIEFHRPRMKALIEAGADVLACETIPCLTEAKAIVRLLKEFPETYAWISFSAKDGLHISDGTPAADCASWLDEHRQIAALGINCTPLQHIPSLIEELKKNTSKPIIVYPNSGEQYDPETKTWNGAACAESYGASARTWHEKGARLIGGCCRTKPENIQEIAAWARSLKTT

>  <soluble on expression in E. coli>
soluble

$$$$

----------
- TEST: soluble on expression in E. coli; label from the status in PepcDB or PDB records

>  <RESIDUES>
MSQPSGPPIGFSNPDYIPPKALDLLKPALTIRAPPEETGMLGELQEDVLQVLSLPCRHTNACLPACLQSLPILCSF

>  <soluble on expression in E. coli>
soluble

$$$$
>  <RESIDUES>
MIGLMKGLAYTLKELTREKVTYDYPHEPLPLPDRFRGIQKFYPEKCIVCNQCVNICPTECIQLTGKKHPDPTKKGKVIETYNINFEICILCDLCTEVCPTEAIVMTNNFELAEYSRDALYKDLAWLDENDTNIRRENKP

>  <soluble on expression in E. coli>
not soluble

$$$$
>  <RESIDUES>
MITVLRINHRPYRDKRITTHVALTARAFGASAILVDERDETLENTIRGVISNFGGSFSIKTGCNWIQEFKHFQGIRVHLTMYGRRINDVIDEIRNSGKDVMVLVGSEKVPIEAYEIADYNVSVTNQPISEVSALAIFLDRYFQGKEFEFEFRGRINVQPAERGKIVKIIPDEIECLDLLKKYGASEQLIEHVKAVEGLALKIAERCNADKRVIVAGSLLHDIGRTRTNGIDHAVAGAEILRSENIHDSVVSAVERHIGAGITREEAARLGLPEKDYVPETLEEMIVAQADNLFAGNKRLRLEEVLNIYRKRGLDSAAERIKELHRRISAIAGIDIDEIRLEHHHHHH

>  <soluble on expression in E. coli>
soluble

$$$$
>  <RESIDUES>
MGSDKIHHHHHHMSHWFFIINPTAGHRNGLRVWKSIQKELIKRKVEHRSFLTEHPGHAEVLARQISTIQEYKLKRLIVIGGDGTMHEVVNGLKDVDDIELSFVPAGAYNDFSRGFSIKKIDLIQEIKKVKRPLTRTFHLGSVNFLQDKSQILYFMNHIGIGFDAYVNKKAMEFPLRRVFLFLRLRFLVYPLSHLHASATFKPFTLACTTEDETREFHDVWFAVVSNHPFYGGGMKAAPLANPREKTFDIVIVENQPFLKKYWLLCLMAFGKHTKMDGVTMFKAKDITFYTKDKIPFHADGEIMGTTPFRLASSPSPLRIKT

>  <soluble on expression in E. coli>
not soluble

$$$$

----------
- TEST: soluble on expression in E. coli; label from the status in PepcDB or PDB records
PROPERTY: soluble on expression in E. coli

>  <RESIDUES>
MAQHVKKPEWLKIRLGGNEKFTETKSIVEGHCLHTICTSGKCPNMGECWSRGTATFMIGGDICTRACRFCNTLTGRPKPLNEAEPTHVALSIKLMGLNHAVVTSVDRDDLPDYGAAHWVKTIQEIRRINSGVTLEVLIPDFKGRMDLVDMIIEASPDVISHNLETVRRLTPSVRSVATYDTSLAVLRHIAQSGKMPAKTGMMLGLGETEEEILELMDDALAAGVSVITIGQYLQPSRKNLPVVEYITPEQFEHLRLVGIEKGFRTIESAPLVRSSYHAERHL

>  <PROPERTY>
soluble on expression in E. coli

>  <RESULT>
not soluble

$$$$
>  <RESIDUES>
MAKLDKKVYERELELLQIELVKLQEWVKQEKLKLVVIFEGRDAAGKGGVIKTITEKLNPRVCRVAALPAPTEKEKTQWYFQRYVAHLPAGGEIVLFDRSWYNRAGVEKVMGFCSDEEYQEFLRSCPEFERMLQRSGIILLKYWFSVSDEEQERRFIERINTPLKRWKFSPMDLESRQRWAAYSRAKDEMFAYTDTKHCPWWVVPSDDKKRARLNCISHLLSSVEYQEIEHAPITLPEINKQGYVRPPIEDQTFVPQRY

>  <PROPERTY>
soluble on expression in E. coli

>  <RESULT>
not soluble

$$$$

----------
- TEST: soluble on expression in E. coli; label from the status in PepcDB or PDB records
PROPERTY: soluble on expression in E. coli

Past entries and their recorded results:
>  <RESIDUES>
DDFEDSLEYLEPLDHDAYIVRLNFTGENTTEPIISYMTKTHNIDVNILEADIKNTKNGSLGFLVIHIPHISEEHFKQFKHNLHEQHVNVEVLKHG

>  <soluble on expression in E. coli>
not soluble

$$$$
>  <RESIDUES>
LEQYVVVSNYKKQENSELSLQAGEVVDVIEKNESGWWFVSTSEEQGWVPATYLEAQN

>  <soluble on expression in E. coli>
soluble

$$$$
>  <RESIDUES>
MGSDKIHHHHHHVLNNLGQTRYVVPRPHPQLVTTRTLVMQRIDGFNFDDVTGMQDAGIDTEDVIRTGMVAFMEGALIHGIFHGDLHGGNLFVLPDGRTALLDFGITARLDDDRRRAFLRLMMTATTNDLTGQMAALRDLGALPLDTDLQAVIRDLRLDEAPIDPTTLSGEEMVAEVQRVVKALLSYGARLPKELMLYVKNMVFLDGAIARLAPDLDLLAEVANISMMFASRHGERLMTEIGIDAANMQVNLDSVKAGFGVDLSTDRLTYRELQERRELIQKRMRSHVERTRRSAN

>  <soluble on expression in E. coli>
not soluble

$$$$
>  <RESIDUES>
MSLTEHALSNARIVLEDDIILGSVLIRDGKIADISEGASKTGEDLEGDFLIPGLVELHTDHLEQHYSPRPGVIWDKIAAIQAHDAQVASSGITTVFDCLRLGSDEDGGFKKGEMREMADAIEAAADQNRLRADHLLHLRCEVASADVLEHFEDFETDPRVRLISLMDHSPGQRQFQSMDQYIFYYQKKRGLSDEAFAEFVRRRQAASAEYSAKHRDYLAASCAKRGITVASHDDATEAHVGEAIGHGVKLAEFPTSVEAAKASHSAGMSVLMGAPNIVRGKSHSGNIAARDLAEIGVLDVLSSDYVPFSLLFAPFLLADQVEAISLSEALRMVTATPARTVGLVDRGRIATGLRADLVRVHREDGVPVARSVWRQGKRVAEGHHHHHH

>  <soluble on expression in E. coli>
not soluble

$$$$
>  <RESIDUES>
MSLGKRIFVFDTTLRDGEQVPGCQLNTEEKIIVAKALDELGVDVIEAGFPVSSPGDFNSVVEITKAVTRPTICALTRAKEADINIAGEALRFAKRSRIHTGIGSSDIHIEHKLRSTRENILEMAVAAVKQAKKVVHEVEFFCEDAGRADQAFLARMVEAVIEAGADVVNIPDTTGYMLPWQYGERIKYLMDNVSNIDKAILSAHCHNDLGLATANSLAALQNGARQVECTINGIGERAGNTALEEVVMAMECHKETLGLETGINHKKLVPISHLVSTLMRMQVQSNKAIVGRNAFAHSSGIHQDGFLKHRETYEIIDPAAVGADSSSIILTARSGRAALNHRLATIGYMLSKDQLDQAYTQFLDMADHLRKVEDENLHELMRGKVYAKEGHHHHHH

>  <soluble on expression in E. coli>
soluble

$$$$

Now, please, on to the next sequence.
Please give the documented soluble on expression in E. coli of `MNAIILAAGFGSRLMPLTKDQPKCMVEYKNKKIIDYEIEALKSAGINEIAVVGGYLNDVLKNYLNKYDIEHFFINSKYDKTNMVHTFFCAKDFMLKCIEEKQDLIISYADIVYFQDCVQKLINAKEELAIVVDKSWCKLWSKRFANPLEDAETLKMTNGYIIELGKKANAYDEIEAQYIGLFKFSYQFLSEVIAFYEMLDRDILYDNKNFENMYMTSFLQALIEKYNNAKAVEIDGNWCEIDFMSDLEVQIEKLEHHHHHH`
not soluble
